# MEASURED TARGET: RAC-alpha serine/threonine-protein kinase (Homo sapiens) (UniProt P31749)
# Sequence (P31749 whole entry, the tested form may be a part): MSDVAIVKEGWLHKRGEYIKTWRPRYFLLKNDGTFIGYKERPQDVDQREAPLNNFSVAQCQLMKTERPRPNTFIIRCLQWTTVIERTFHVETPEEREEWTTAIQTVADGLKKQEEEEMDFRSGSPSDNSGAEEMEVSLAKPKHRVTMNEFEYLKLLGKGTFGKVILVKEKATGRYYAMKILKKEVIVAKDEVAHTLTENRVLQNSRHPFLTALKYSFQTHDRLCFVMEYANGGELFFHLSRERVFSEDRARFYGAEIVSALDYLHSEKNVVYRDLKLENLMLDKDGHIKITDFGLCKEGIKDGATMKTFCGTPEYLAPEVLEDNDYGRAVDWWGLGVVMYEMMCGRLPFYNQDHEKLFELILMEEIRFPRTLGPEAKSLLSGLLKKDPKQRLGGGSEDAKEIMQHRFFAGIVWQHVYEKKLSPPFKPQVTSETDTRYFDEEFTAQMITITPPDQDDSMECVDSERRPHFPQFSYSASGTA
# EXPERIMENTAL DETAILS: Inhibition of human AKT1 (104 to 408 residues) assessed as residual activity at 1 uM relative to control
MEASURE: Activity (%)

- COc1ccc2c(c1)c(/C=C1\C(=O)Nc3ccc(S(=O)(=O)N(C)C)cc31)cn2C: 93
- CNS(=O)(=O)c1ccc2c(c1)/C(=C/c1cn(C)c3ccc(OC)cc13)C(=O)N2: 98
- COc1ccc2c(c1)c(/C=C1\C(=O)Nc3ccc(S(N)(=O)=O)cc31)cn2C: 96
- COc1ccc2[nH]cc(/C=C3\C(=O)Nc4ccc(S(N)(=O)=O)cc43)c2c1: 101
- Cn1cc(/C=C2\C(=O)Nc3ccc(S(N)(=O)=O)cc32)c2ccccc21: 97
- CN(C)S(=O)(=O)c1ccc2c(c1)/C(=C/c1cn(C)c3ccc(O)cc13)C(=O)N2: 105

---

# MEASURED TARGET: Aurora kinase B (Homo sapiens) (UniProt Q96GD4)
# Sequence (Q96GD4 whole entry): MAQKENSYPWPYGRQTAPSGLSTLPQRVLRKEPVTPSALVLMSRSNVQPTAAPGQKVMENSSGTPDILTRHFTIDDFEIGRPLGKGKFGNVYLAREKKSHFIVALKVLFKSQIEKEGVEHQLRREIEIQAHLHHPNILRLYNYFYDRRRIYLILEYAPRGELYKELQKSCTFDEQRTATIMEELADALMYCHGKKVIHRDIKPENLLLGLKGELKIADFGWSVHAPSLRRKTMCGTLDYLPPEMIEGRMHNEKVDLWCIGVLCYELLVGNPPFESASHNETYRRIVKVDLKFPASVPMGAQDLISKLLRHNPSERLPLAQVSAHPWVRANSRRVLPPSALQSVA
# EXPERIMENTAL DETAILS: Inhibition of human Aurora-B assessed as residual activity at 0.1 uM relative to control
MEASURE: Activity (%)

Past entries and their recorded results:
- CN(C)S(=O)(=O)c1ccc2c(c1)/C(=C/c1cn(C)c3ccc(O)cc13)C(=O)N2: 43
- COc1ccc2[nH]cc(/C=C3\C(=O)Nc4ccc(S(N)(=O)=O)cc43)c2c1: 95
- CNS(=O)(=O)c1ccc2c(c1)/C(=C/c1cn(C)c3ccc(OC)cc13)C(=O)N2: 74
- COc1ccc2c(c1)c(/C=C1\C(=O)Nc3ccc(S(N)(=O)=O)cc31)cn2C: 79

A: COc1ccc2c(c1)c(/C=C1\C(=O)Nc3ccc(S(=O)(=O)N(C)C)cc31)cn2C
B: Cn1cc(/C=C2\C(=O)Nc3ccc(S(N)(=O)=O)cc32)c2ccccc21
Larger number for Activity: A , or B ? Write the label of whichever entry you select.
A
(A: 85%, B: 59%)

---

# MEASURED TARGET: Insulin-like growth factor 1 receptor (Homo sapiens)
# EXPERIMENTAL DETAILS: Inhibition of human IGF1R assessed as residual activity at 0.1 uM relative to control
MEASURE: Activity (%)

• CNS(=O)(=O)c1ccc2c(c1)/C(=C/c1cn(C)c3ccc(OC)cc13)C(=O)N2 = 96
• COc1ccc2c(c1)c(/C=C1\C(=O)Nc3ccc(S(=O)(=O)N(C)C)cc31)cn2C = 94
• COc1ccc2c(c1)c(/C=C1\C(=O)Nc3ccc(S(N)(=O)=O)cc31)cn2C = 105
• COc1ccc2[nH]cc(/C=C3\C(=O)Nc4ccc(S(N)(=O)=O)cc43)c2c1 = 98
• CN(C)S(=O)(=O)c1ccc2c(c1)/C(=C/c1cn(C)c3ccc(O)cc13)C(=O)N2 = 102
• Cn1cc(/C=C2\C(=O)Nc3ccc(S(N)(=O)=O)cc32)c2ccccc21 = 105

---

# MEASURED TARGET: Serine/threonine-protein kinase 3 (Homo sapiens) (UniProt Q13188)
# Sequence (whole entry): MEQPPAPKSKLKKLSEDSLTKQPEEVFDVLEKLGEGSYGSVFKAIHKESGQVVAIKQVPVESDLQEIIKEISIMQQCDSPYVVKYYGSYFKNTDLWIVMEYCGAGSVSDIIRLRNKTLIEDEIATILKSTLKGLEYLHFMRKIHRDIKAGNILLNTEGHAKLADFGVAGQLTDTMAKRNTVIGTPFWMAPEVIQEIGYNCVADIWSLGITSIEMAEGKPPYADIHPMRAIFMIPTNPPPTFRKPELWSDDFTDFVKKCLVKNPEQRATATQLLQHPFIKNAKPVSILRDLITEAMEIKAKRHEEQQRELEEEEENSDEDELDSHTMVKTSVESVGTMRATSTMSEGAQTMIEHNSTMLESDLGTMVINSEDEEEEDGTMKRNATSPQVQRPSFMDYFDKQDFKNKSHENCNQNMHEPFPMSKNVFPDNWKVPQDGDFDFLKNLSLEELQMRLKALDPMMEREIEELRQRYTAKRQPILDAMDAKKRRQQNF
# EXPERIMENTAL DETAILS: Inhibition of human MST2 assessed as residual activity at 1 uM relative to control
MEASURE: Activity (%)

- CN(C)S(=O)(=O)c1ccc2c(c1)/C(=C/c1cn(C)c3ccc(O)cc13)C(=O)N2: 83
- Cn1cc(/C=C2\C(=O)Nc3ccc(S(N)(=O)=O)cc32)c2ccccc21: 62
- COc1ccc2c(c1)c(/C=C1\C(=O)Nc3ccc(S(N)(=O)=O)cc31)cn2C: 84
- CNS(=O)(=O)c1ccc2c(c1)/C(=C/c1cn(C)c3ccc(OC)cc13)C(=O)N2: 77

A: COc1ccc2c(c1)c(/C=C1\C(=O)Nc3ccc(S(=O)(=O)N(C)C)cc31)cn2C
B: COc1ccc2[nH]cc(/C=C3\C(=O)Nc4ccc(S(N)(=O)=O)cc43)c2c1
Hi, I'm comparing A with B and wondering which one has the bigger number for Activity. Any idea? Selection: enter the item's label.
A
